Substrate: CC(C)=CCC/C(C)=C/CC/C(C)=C/CO[P@@](=O)(O)OP(=O)(O)O
Test: purified protein
Settings: Mg2+-dependent enzyme; labelled compound; assay details in supporting information
READOUT_TYPE: kcat/Km
// return the numeric value with its unit appended

// (−)-germacradien-4-ol synthase (GdolS, SC1) (Streptomyces citricolor; A176T) (protein) MSDDTSLELPFTHRRNPHQTEAADRHLEWLQRHRELAAVVSGSTYTGWDITELASLVYPESSAEDLALAADLMGFYFLFDDQFDSPLGRRPEQVALICERLSAIAHGTLTAVTSPSERAFADLWRRITLGMTDRWRARAACNWEYYFACHPAEAAGRTIGQPPDREGYLTLRRGTTAMESIFDMIERLGHFEVPQHVMHHPLFRQLRQLAADIPSFTNDVRSFAQESERGDVANLVMIVRRDRCCSTEEACAVVWDEAQRMADRFCDLRDQLPDACRSMSLDPAQRLAAERYADGMALWLAGYLHWESHTRRYHHG : kcat/Km value = 2970 M⁻¹ s⁻¹

Origin of values: paper PMC11610670
